# tested-on: T1, human LAG3 on recombinant CHO cells (human, UniProt P18627 23-525)
# T1 construct: whole, on cells; also called Lag3 cells; recombinant CHO cells expressing Lag3
# T1 sequence (looked up): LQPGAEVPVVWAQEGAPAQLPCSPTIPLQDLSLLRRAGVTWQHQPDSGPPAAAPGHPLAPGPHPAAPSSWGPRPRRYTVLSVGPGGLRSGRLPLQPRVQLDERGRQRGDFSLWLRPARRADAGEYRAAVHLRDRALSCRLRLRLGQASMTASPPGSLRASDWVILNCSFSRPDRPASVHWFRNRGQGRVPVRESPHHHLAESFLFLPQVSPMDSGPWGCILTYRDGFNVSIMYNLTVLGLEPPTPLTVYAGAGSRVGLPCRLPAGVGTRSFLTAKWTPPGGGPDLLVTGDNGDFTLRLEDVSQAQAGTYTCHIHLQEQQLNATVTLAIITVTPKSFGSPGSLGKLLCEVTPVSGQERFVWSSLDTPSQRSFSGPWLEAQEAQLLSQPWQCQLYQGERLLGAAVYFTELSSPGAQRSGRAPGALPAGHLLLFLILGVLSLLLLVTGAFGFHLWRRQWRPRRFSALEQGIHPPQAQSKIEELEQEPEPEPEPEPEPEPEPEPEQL
# test-description: cell ELISA on CHO cells expressing human LAG3;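 further: bivalent Fc-format binders titrated in threefold steps from 6 µg/mL, incubated with the cells 2 h at 4 °C, bound antibody detected by HRP-coupled anti-human IgG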
Collected OD max values appear next to each entry.
The reply should contain only the number, in OD.

binder	readout-units	OD max
bivalent 21B11 aVH-Fc (Fc fusion) EVQLVESGGGLVQPGGSLRLSCAASGFNIKDTCIGWVRRAPGKGTELVAEICQDIGYTRYADSVKGRFTISADTSKNTAYLQMNSLRAEDTAVYYCAADESVDNFKYWGQGTTVTVSSGGGGSGGGGSDKTHTCPPCPAPEAAGGPSVFLFPPKPKDTLMISRTPEVTCVVVDVSHEDPEVKFNWYVDGVEVHNAKTKPREEQYNSTYRVVSVLTVLHQDWLNGKEYKCKVSNKALGAPIEKTISKAKGQPREPQVYTLPPSRDELTKNQVSLTCLVKGFYPSDIAVEWESNGQPENNYKTTPPVLDSDGSFFLYSKLTVDKSRWQQGNVFSCSVMHEALHNHYTQKSLSLSPGK	OD	1.3

Now look at this one.
Fill in: OD max of bivalent P10C3 aVH-Fc (Fc fusion) EVQLVESGGGLVQPGGSLRLSCAASGFNIKDTCIGWVRRAPGKGTELVAEICTDAGYTRYADSVKGRFTISADTSKNTAYLQMNSLRAEDTAVYYCAASESPSGFRYWGQGTTVTVSSGGGGSGGGGSDKTHTCPPCPAPEAAGGPSVFLFPPKPKDTLMISRTPEVTCVVVDVSHEDPEVKFNWYVDGVEVHNAKTKPREEQYNSTYRVVSVLTVLHQDWLNGKEYKCKVSNKALGAPIEKTISKAKGQPREPQVYTLPPSRDELTKNQVSLTCLVKGFYPSDIAVEWESNGQPENNYKTTPPVLDSDGSFFLYSKLTVDKSRWQQGNVFSCSVMHEALHNHYTQKSLSLSPGK is ___
1.2
